- Test system: skeletal muscle mitochondria
- experiment_notes: Mitochondrial membrane potential (ΔΨm, TMRM) powered by glutamate plus malate
- Format: biochemical, rat
- stated_conditions: 80 μM; 5 mM glutamate, 5 mM malate, without nigericin
Assign labels as follows, please: 1 for ΔΨm with Glu + Mal (% change at 80 μM) below 20%; 0 for ΔΨm with Glu + Mal (% change at 80 μM) equal to or exceeding 20%.

- O=C(O)CCC(=O)Nc1ccc(-c2nc3ccccc3o2)cc1: 0
- CCCC(=O)Nc1ccc(-c2nc3cc4ccccc4cc3[nH]2)cc1: 0
- c1ccc2[nH]c(-c3ccc(-c4nc5ccccc5[nH]4)cc3)nc2c1: 1
- O=C(O)CCC(=O)Nc1ccc(-c2nc3ccccc3s2)cc1: 0
- CCCCCCNC(=O)CCC(=O)O: 1
- O=C(O)CCC(=O)Nc1ccc(-c2nc3ccccc3[nH]2)cc1: 1
- O=C(O)CCC(=O)Nc1ccc(Cl)cc1: 1
- Cc1ccc(NC(=O)CCC(=O)O)cc1: 1
- C=C(C)C(=O)Nc1ccc(-c2nc3ccccc3[nH]2)cc1: 0
- O=C(O)CCC(=O)Nc1cccc(-c2nc3ccccc3[nH]2)c1: 1
- Cc1ccc2[nH]c(-c3ccc(NC(=O)CCC(=O)O)cc3)nc2c1: 0
- O=C(Nc1ccc(-c2nc3ccccc3[nH]2)cc1)C1CC1: 1
- O=C(Nc1ccc(-c2nc3ccccc3[nH]2)cc1)c1ccco1: 0
- O=C(O)CCC(=O)Nc1ccc(-c2nc3cc(NC(=O)CCC(=O)O)ccc3[nH]2)cc1: 0
- COC(=O)CCC(=O)Nc1ccc(C)cc1: 1
- O=C(O)CCC(=O)Nc1ccc(-c2nc3cc4ccccc4cc3[nH]2)cc1: 0
- O=C(O)CCC(=O)Nc1ccc(-c2nc3cc(C(=O)c4ccccc4)ccc3[nH]2)cc1: 0
- CCOc1ccc(C(=O)Nc2ccc(-c3nc4ccccc4[nH]3)cc2)cc1: 1
- CC(=O)Nc1ccc(-c2nc3ccccc3[nH]2)cc1: 1

The measured values listed here are drawn from paper PMC3933693.
